SYSTEM_NAME: T1, cyno CD33 extracellular domain (Cynomolgus/Rhesus (cyno))
T1 construct: soluble monomeric ECD; also called cyno CD33 ECD
ASSAY_PROCEDURE: SPR, Fab captured, 37C;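 further: surface plasmon resonance with Fabs captured on anti-Fab surface, soluble monomeric CD33 as analyte at several concentrations, double-referenced 1:1 model fit, KD as koff/kon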
Known koff of a selection of binders
Dear colleague, please return just the value in s⁻¹, with no unit written.

Below are worked cases with known answers.
1) ADI-11830 Fab (Fab, V domains shown, Fab fragment; also called Ab9) VH: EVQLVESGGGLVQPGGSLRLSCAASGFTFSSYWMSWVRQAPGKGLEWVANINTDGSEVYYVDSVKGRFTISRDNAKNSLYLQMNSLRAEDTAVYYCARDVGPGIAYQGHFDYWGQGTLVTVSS VL: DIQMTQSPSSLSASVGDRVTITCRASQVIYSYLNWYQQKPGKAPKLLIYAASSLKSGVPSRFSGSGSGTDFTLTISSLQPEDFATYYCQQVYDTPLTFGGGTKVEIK | 0.0364
2) ADI-11819 Fab (Fab, V domains shown, Fab fragment; also called Ab8) VH: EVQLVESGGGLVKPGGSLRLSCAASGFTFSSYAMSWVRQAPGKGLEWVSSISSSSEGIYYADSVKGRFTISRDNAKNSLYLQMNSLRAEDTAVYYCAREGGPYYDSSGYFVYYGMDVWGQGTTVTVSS VL: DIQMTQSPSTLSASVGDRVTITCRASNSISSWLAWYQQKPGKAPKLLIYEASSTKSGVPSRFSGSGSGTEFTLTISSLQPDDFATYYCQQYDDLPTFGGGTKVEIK | 0.019

Now take the following binder into account.
In plain terms, ADI-10159 Fab (Fab, V domains shown, Fab fragment; also called Ab1; G59) VH: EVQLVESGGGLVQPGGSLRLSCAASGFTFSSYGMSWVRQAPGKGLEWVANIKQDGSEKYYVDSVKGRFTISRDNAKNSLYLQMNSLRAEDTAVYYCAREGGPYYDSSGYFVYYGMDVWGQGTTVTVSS VL: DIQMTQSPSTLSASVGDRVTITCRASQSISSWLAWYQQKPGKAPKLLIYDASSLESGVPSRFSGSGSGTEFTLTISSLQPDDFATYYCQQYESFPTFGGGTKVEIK has a documented koff of 0.0436
